FYI, the data here is from patent US5679671A.

- Subject of test: NEP (Rattus norvegicus, UniProt P07861)
- Sequence (P07861 whole entry): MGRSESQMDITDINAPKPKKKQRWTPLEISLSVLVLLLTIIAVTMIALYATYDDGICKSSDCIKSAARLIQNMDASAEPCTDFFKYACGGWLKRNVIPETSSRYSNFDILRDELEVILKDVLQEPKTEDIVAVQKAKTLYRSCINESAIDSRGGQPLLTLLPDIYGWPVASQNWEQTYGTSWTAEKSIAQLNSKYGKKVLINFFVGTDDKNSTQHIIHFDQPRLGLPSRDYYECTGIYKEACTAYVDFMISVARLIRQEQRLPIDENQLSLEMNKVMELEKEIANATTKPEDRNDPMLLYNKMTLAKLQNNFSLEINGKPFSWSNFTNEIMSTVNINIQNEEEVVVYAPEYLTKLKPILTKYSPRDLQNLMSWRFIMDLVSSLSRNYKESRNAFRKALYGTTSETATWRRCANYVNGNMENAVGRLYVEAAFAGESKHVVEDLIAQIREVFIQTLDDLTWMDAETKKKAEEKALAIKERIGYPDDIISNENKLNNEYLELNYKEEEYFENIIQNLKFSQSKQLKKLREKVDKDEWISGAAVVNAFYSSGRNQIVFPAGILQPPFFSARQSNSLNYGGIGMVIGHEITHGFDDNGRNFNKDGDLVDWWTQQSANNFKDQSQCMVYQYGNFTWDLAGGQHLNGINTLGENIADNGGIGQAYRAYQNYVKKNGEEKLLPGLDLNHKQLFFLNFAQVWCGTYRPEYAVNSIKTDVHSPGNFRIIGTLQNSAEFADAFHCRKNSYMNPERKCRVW
- Protocol summary: NEP inhibition activity (Experiment D-1)
- Format: biochemical
- Design: membrane fraction prepared from rat renal cortex; from tissue; host or cells: rat renal cortex, membrane fraction (method of Booth and Kenny)
- Condition description: rat renal cortex membrane fraction
Exercise: state measured IC50 for each of the compounds provided.
The response must be a number in nM with no trailing unit.

Q) Please give measured IC50 of the following entry: `CS(=O)(=O)Nc1ccc2c(c1)[C@H]1CCC[C@@H](C(=O)O)N1C(=O)[C@@H](NC(=O)[C@@H](S)Cc1ccccc1)C2`
A) 33

Q) Quote IC50 reported for COc1ccc(CC(S)C(=O)N[C@H]2Cc3ccccc3[C@H]3SC[C@H](C(=O)O)N3C2=O)cc1 (stereo partly drawn) please.
A) 14

Q) Recall and state the measured IC50 for `COc1ccc(C[C@H](S)C(=O)N[C@H]2Cc3ccc(NS(C)(=O)=O)cc3[C@H]3CCC[C@@H](C(=O)O)N3C2=O)cc1` .
A) 38
